# Target Or Test System: Inhibitor of nuclear factor kappa-B kinase subunit alpha (Homo sapiens)
# Sequence (whole entry): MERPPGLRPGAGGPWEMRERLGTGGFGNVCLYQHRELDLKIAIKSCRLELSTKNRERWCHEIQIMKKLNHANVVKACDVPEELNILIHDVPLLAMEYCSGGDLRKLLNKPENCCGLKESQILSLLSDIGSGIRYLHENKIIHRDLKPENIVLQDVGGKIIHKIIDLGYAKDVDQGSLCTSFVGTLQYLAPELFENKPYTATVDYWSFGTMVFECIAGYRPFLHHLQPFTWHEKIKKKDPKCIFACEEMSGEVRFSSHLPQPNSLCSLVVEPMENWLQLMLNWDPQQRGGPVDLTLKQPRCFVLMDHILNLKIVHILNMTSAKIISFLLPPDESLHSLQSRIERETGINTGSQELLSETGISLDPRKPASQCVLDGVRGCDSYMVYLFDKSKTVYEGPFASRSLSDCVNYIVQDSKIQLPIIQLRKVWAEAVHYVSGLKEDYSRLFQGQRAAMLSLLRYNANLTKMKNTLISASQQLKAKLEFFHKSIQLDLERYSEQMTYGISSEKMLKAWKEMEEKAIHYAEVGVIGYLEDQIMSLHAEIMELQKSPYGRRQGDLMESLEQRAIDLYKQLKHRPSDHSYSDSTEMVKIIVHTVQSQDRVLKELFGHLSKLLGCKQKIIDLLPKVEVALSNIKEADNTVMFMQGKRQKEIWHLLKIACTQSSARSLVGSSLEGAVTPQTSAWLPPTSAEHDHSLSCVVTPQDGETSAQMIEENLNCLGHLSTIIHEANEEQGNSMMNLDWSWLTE
# Protocol Description: Inhibition of recombinant IKKalpha (unknown origin) using ulight-IkappaomegaBalpha as substrate at 20 uM after 2 hrs by LANCE ultra TR-FRET assay relative to control
Measurement Kind: inhibition (%)

# count of solved cases: 8
{"columns": ["Structure Notation", "inhibition / %"],
 "data": [
  ["COCCOCOc1ccc(-c2ncc(-c3ccc(C(=O)O)cc3)s2)cc1C12CC3CC(CC(C3)C1)C2", 82.9],
  ["COCCOCOc1ccc(-c2ncc(/C=C/C(=O)O)s2)cc1C12CC3CC(CC(C3)C1)C2", 4.5],
  ["COc1nc(/C=C/C(=O)O)cnc1-c1ccc(O)c(C23CC4CC(CC(C4)C2)C3)c1", 17.9],
  ["COCCOCOc1cc(C)c(-c2ccc3cc(C(=O)O)ccc3c2Cl)cc1C12CC3CC(CC(C3)C1)C2", 33.9],
  ["COCCOCOc1ccc(-c2ncc(-c3ccc(C(=O)O)cc3)nc2OC)cc1C12CC3CC(CC(C3)C1)C2", 23.8],
  ["COCCOCOc1cc(C)c(-c2ncc(/C=C/C(=O)O)s2)cc1C12CC3CC(CC(C3)C1)C2", 29.2],
  ["Cc1cc(O)c(C23CC4CC(CC(C4)C2)C3)cc1-c1ccc(CC(=O)O)cc1Cl", 26.9],
  ["O=C(O)/C=C/c1ccc(-c2ccc(O)c(C34CC5CC(CC(C5)C3)C4)c2)c(Cl)c1", 41.3]
]}

1. COc1nc(/C=C/C(=O)O)cnc1-c1cc(C23CC4CC(CC(C4)C2)C3)c(O)cc1C
2. Cc1cc(O)c(C23CC4CC(CC(C4)C2)C3)cc1-c1ccc(/C=C/C(=O)O)cc1Cl
3. O=C(O)c1ccc(-c2cnc(-c3ccc(O)c(C45CC6CC(CC(C6)C4)C5)c3)s2)cc1
INPUT: Order these by inhibition, descending, and give the full ranking. Answer by writing out the labels in the requested order.
OUTPUT: 3, 1, 2
